molecular target: T1, HLA-A*02:01 (human); assay: fluorescence polarization-based competitive peptide-binding assay
T1 construct: The form of the HLA molecule in the fluorescence polarization assay is not described; also called HLA-A2
Listing of entries alongside the reported log(IC50, nM).

{"columns": ["binder", "measuredResult"],
 "data": [
  ["YISKCWDYA (Synthetic nonamer carrying a tumor amino acid substitution) [HSD17B7 H108Y AAS peptide YISKCWDYA (MEL38)]", "4.28 log(IC50, nM)"]
]}

Look at this binder and give its reported log(IC50, nM). HLYASLSRV [MRPS5 P59L AAS peptide HLYASLSRV, anchor-modified at P9 (MEL218)]
3.28 log(IC50, nM)

Look at this binder and give its reported log(IC50, nM). FVSALCMFL [ARFGEF1 R782C AAS peptide FVSALCMFL (MEL38)]
3.18 log(IC50, nM)

Look at this binder and give its reported log(IC50, nM). VLLRALPVL (Synthetic nonamer carrying a tumor amino acid substitution) [MRPS17 P167L AAS peptide VLLRALPVL (MEL218)]
3.05 log(IC50, nM)

Look at this binder and give its reported log(IC50, nM). IIGAGPAEV [KDM1B G394E AAS peptide IIGAGPAEV, anchor-modified at P9 (MEL21)]
3.82 log(IC50, nM)
